relaxation pD2, mes. artery by entry:
- target of assay: P2Y receptor (mesenteric artery)
- assay procedure: Relaxation of rabbit mesenteric artery
- experimental setup: log molar units
value type: relaxation pD2, mes. artery

| molecule | reported result |
| --- | --- |
| O=c1ccn([C@@H]2O[C@H](COP(=O)(O)OP(=O)(O)OP(=O)(O)O)[C@@H](O)[C@H]2O)c(=O)[nH]1 [UTP, reference compound] | 6.7 |
| Nc1nc(SC2CCCCC2)nc2c1ncn2[C@@H]1O[C@H](COP(=O)(O)OP(=O)(O)OP(=O)(O)O)[C@@H](O)[C@H]1O | 5.9 |
| CCCCCCSc1nc(N)c2ncn([C@@H]3O[C@H](COP(=O)(O)OP(=O)(O)OP(=O)(O)O)[C@@H](O)[C@H]3O)c2n1 | 6.7 |
| CSc1nc(N)c2ncn([C@@H]3O[C@H](COP(=O)(O)OP(=O)(O)OP(=O)(O)O)[C@@H](O)[C@H]3O)c2n1 | 6.5 |
| C=CCCCCSc1nc(NC)c2ncn([C@@H]3O[C@H](COP(=O)(O)OP(=O)(O)OP(=O)(O)O)[C@@H](O)[C@H]3O)c2n1 | 6.0 |
| Nc1nc(SCCc2ccccc2)nc2c1ncn2[C@@H]1O[C@H](COP(=O)(O)OP(=O)(O)OP(=O)(O)O)[C@@H](O)[C@H]1O | 6.2 |
| Nc1ncnc2c1ncn2[C@@H]1O[C@H](CO)[C@@H](O)[C@H]1O [Adenosine, reference compound] | 6.0 |
| Nc1ncnc2c1ncn2[C@@H]1O[C@H](COP(O)(=S)OP(=O)(O)OP(=O)(O)O)[C@@H](O)[C@H]1O (stereo partly drawn) [ATP-α-S (S-isomer), reference compound] | 6.6 |
| Nc1ncnc2c1ncn2[C@@H]1O[C@H](COP(=O)(O)OP(=O)(O)OP(=O)(O)O)[C@@H](O)[C@H]1O [ATP, adenosine-5'-triphosphate, reference compound] | 6.0 |
| Nc1ncnc2c1ncn2[C@@H]1O[C@H](COP(=O)(O)OP(O)(O)=S)[C@@H](O)[C@H]1O [ADP-β-S, reference compound] | 5.8 |
| Nc1ncnc2c1ncn2[C@@H]1O[C@H](COP(=O)(O)OP(=O)(O)OP(O)(O)=S)[C@@H](O)[C@H]1O [ATP-γ-S, reference compound] | 5.8 |

====

- target of assay: P2Y receptor (turkey erythrocyte membranes) (Meleagris gallopavo)
- Construct: from tissue; host or cells: washed turkey erythrocytes, ghosts prepared by hypotonic lysis
- Sequence (P49652 whole entry): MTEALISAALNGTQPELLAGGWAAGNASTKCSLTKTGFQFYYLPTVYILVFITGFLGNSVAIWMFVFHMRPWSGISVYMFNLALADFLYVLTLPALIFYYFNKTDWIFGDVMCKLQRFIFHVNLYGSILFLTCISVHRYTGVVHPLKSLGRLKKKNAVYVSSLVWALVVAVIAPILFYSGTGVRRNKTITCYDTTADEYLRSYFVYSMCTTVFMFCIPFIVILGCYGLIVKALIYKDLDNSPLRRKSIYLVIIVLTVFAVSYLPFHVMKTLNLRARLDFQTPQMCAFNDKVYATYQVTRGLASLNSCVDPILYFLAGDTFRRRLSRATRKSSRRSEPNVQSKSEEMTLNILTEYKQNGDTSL
- assay procedure: Stimulation of phospholipase C (inositol phosphate formation) in turkey erythrocyte membranes
- Format: biochemical
- experimental setup: turkey erythrocyte membranes; mean ± S.E.M. for at least 2 determinations; read-out: phosphatidyl inositol metabolism (K0.5, nM) erythrocyte

| molecule | EC50 (nM) |
| --- | --- |
| CCCCCCCCSc1nc(N)c2ncn([C@@H]3O[C@H](COP(=O)(O)O)[C@@H](O)[C@H]3O)c2n1 | 295 |
| Nc1nc(SCCc2ccc([N+](=O)[O-])cc2)nc2c1ncn2[C@@H]1O[C@H](COP(=O)(O)O)[C@@H](O)[C@H]1O | 3000 |
| CCCCCCSc1nc(N)c2ncn([C@@H]3O[C@H](COP(=O)(O)O)[C@@H](O)[C@H]3O)c2n1 | 58 |
| Nc1ncnc2c1ncn2[C@@H]1O[C@H](COP(=O)(O)OP(=O)(O)NP(=O)(O)O)[C@@H](O)[C@H]1O [AppNHp, reference compound] | 4450 |

Origin of measurements: patent US5620676A
